System: PC15
Test: qHTS profiling for inhibitors of Plasmodium falciparum proliferation (AID 504749); note: nearly all actives have a fitted effect of over 60% in size
Details: P. falciparum in erythrocytes, SYBR Green DNA, 72 h; series mostly up to 28.7 µM
Inconclusive results are not listed. Activity calls are given as the source filed them. Calls come from the whole dose curve; as a rule, active = well fitted inhibition curve with a large enough effect; inconclusive = small, poorly fitted or top-dose-only effect; inactive = flat fitted curve, though single readings scatter.
Classes used: active, inactive

INSERT INTO results (compound, assigned_class) VALUES
  ('Nc1ncnc2c1ncn2CCOCP(=O)(O)O', 'inactive'),
  ('O=C(NCCNCC(O)COc1ccc(O)cc1)N1CCOCC1 (configuration not stated)', 'inactive'),
  ('C=C(C)C1CC=C(C)CC1 (configuration not stated)', 'inactive'),
  ('COc1ccc(/C=C/C(=O)OCCC(C)C)cc1', 'inactive'),
  ('CC1=CC(=C(c2ccc(N)cc2)c2ccc(N)cc2)C=CC1=N', 'active'),
  ('CCCCCCCCCCCCCCCCOCCOCCOCCOCCOCCOCCOCCOCCOCCOCCOCCOCCOCCOCCOCCOCCOCCOCCOCCOCCO', 'active'),
  ('FC(F)(F)C(F)(F)C(F)(F)C(F)(F)C(F)(F)C(F)(F)F', 'inactive'),
  ('CN(CCO)CC(O)Cn1cnc2c1c(=O)n(C)c(=O)n2C (configuration not stated) (tested in a mixture with another compound)', 'inactive'),
  ('O=C(NNCNNC(=O)c1ccncc1)c1ccncc1', 'inactive'),
  ('O=C(O)COc1ccccc1/C=N/NC(=O)c1ccncc1', 'inactive'),
  ('C[C@H](N)C(=O)N[C@@H](C)P(=O)(O)O', 'inactive'),
  ('O=C1c2ccccc2C(=O)C1c1ccc(Cl)cc1', 'inactive'),
  ('c1ccc2c(c1)OCC(CN1CCCCC1)O2 (configuration not stated)', 'inactive'),
  ('CCC(=O)c1ccc2c(c1)N(CCCN1CCN(CCO)CC1)c1ccccc1S2', 'active'),
  ('CO', 'inactive'),
  ('CC(=O)[O][Al][O]C(C)=O', 'inactive'),
  ('COC(=O)c1ccccc1O', 'inactive'),
  ('COc1ccc2nc(NC(=O)Nc3ccccc3)sc2c1', 'inactive'),
  ('CC1(C)S[C@@H]2[C@H](NC(=O)C3(N)CCCCC3)C(=O)N2[C@H]1C(=O)O', 'inactive'),
  ('OCl', 'inactive'),
  ('O=P(O)(O)CP(=O)(O)O', 'inactive'),
  ('CCCCC[C@H](O)/C=C/[C@@H]1[C@H]2C/C(=C/CCCC(=O)O)O[C@H]2C[C@H]1O', 'inactive');
